# EXPERIMENTAL TARGET: T7 RNA polymerase (Escherichia phage T7, UniProt P00573)
# Sequence (P00573 whole entry): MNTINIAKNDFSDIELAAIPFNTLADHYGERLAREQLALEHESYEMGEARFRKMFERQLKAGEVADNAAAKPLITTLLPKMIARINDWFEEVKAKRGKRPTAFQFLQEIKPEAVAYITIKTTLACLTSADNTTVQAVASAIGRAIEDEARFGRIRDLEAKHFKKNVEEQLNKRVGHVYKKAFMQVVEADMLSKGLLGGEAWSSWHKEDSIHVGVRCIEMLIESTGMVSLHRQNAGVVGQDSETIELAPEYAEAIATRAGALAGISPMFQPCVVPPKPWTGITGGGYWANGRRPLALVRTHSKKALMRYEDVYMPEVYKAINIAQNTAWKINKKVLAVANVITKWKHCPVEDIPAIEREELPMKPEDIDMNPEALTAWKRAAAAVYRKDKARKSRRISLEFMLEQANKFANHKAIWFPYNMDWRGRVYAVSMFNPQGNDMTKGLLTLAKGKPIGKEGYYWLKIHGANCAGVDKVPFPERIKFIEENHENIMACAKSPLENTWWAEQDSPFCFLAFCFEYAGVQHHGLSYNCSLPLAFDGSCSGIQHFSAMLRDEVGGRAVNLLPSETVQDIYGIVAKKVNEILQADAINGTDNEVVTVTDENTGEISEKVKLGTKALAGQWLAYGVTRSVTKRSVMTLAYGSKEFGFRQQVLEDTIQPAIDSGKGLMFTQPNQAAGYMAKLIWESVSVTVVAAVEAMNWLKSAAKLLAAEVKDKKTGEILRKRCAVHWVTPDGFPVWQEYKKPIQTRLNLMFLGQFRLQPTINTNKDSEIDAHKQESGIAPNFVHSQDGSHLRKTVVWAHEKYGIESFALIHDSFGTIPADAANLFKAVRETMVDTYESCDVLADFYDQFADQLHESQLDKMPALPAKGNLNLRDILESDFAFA
# EXPERIMENT SUMMARY: Capping rate of in vitro transcribed mRNA by LC-MS
# Format: biochemical
# TEST PARAMETERS: difference to compound 14
RECORDED METRIC: capping rate higher than that of compound 14 (%)
Kindly answer with a numeric value in %, unit omitted.

Check out these entries, answers already filled in.
COMPOUND	RESULT NUMBER
COC1C(OP(=O)([O-])OC[C@H]2O[C@@H](n3cnc4c(=O)[nH]c(N)nc43)C(O)C2O)[C@@H](COP(=O)(O)OP(=O)(O)OP(=O)(O)OC[C@]23O[C@@H]([n+]4cn(C)c5c(=O)[nH]c(N)nc54)C(O[C@H]2CCS(C)(=O)=O)C3O)O[C@H]1n1cnc2c(N)ncnc21 (stereo partly shown)	17.7
COC1C(OP(=O)([O-])OC[C@H]2O[C@@H](n3cnc4c(=O)[nH]c(N)nc43)C(O)C2O)[C@@H](COP(=O)(O)OP(=O)(O)OP(=O)(O)OC[C@]23O[C@@H]([n+]4cn(C)c5c(=O)[nH]c(N)nc54)C(O[C@H]2CC(F)F)C3O)O[C@H]1n1cnc2c(N)ncnc21 (stereo partly shown)	18.8
COC1C(OP(=O)([O-])OC[C@H]2O[C@@H](n3cnc4c(=O)[nH]c(N)nc43)C(O)C2O)[C@@H](COP(=O)(O)OP(=O)(O)OP(=O)(O)OC[C@]23O[C@@H]([n+]4cn(C)c5c(=O)[nH]c(N)nc54)C(O[C@H]2CCS(=O)(=O)N(C)C)C3O)O[C@H]1n1cnc2c(N)ncnc21 (stereo partly shown)	17.6

Here is another compound to look at.
Please fill in: capping rate higher than that of compound 14 reported for COC1C(OP(=O)([O-])OC[C@H]2O[C@@H](n3cnc4c(=O)[nH]c(N)nc43)C(O)C2O)[C@@H](COP(=O)(O)OP(=O)(O)OP(=O)(O)OC[C@]23O[C@@H]([n+]4cn(C)c5c(=O)[nH]c(N)nc54)C(O[C@H]2CC(=O)N(C)C)C3O)O[C@H]1n1cnc2c(N)ncnc21 (stereo partly shown) = 17.3

====

# Test system: BALB/C mice
# EXPERIMENT SUMMARY: In vivo imaging of protein expressed by LNP-carrying Fluc-mRNA in mice
# TEST PARAMETERS: at 6 hours, ratio to YK-CAP-002
RECORDED METRIC: average radiation intensity, times that of YK-CAP-002 (times)
Kindly answer with a numeric value in times, unit omitted.

Please fill in: average radiation intensity, times that of YK-CAP-002 reported for COC1C(OP(=O)([O-])OC[C@H]2O[C@@H](n3cnc4c(=O)[nH]c(N)nc43)C(O)C2O)[C@@H](COP(=O)(O)OP(=O)(O)OP(=O)(O)OC[C@]23O[C@@H]([n+]4cn(C)c5c(=O)[nH]c(N)nc54)C(O[C@H]2CC(F)F)C3O)O[C@H]1n1cnc2c(N)ncnc21 (stereo partly shown) [YK-CAP-004] = 2.6

Please fill in: average radiation intensity, times that of YK-CAP-002 reported for COC1C(OP(=O)([O-])OC[C@H]2O[C@@H](n3cnc4c(=O)[nH]c(N)nc43)C(O)C2O)[C@@H](COP(=O)(O)OP(=O)(O)OP(=O)(O)OC[C@]23O[C@@H]([n+]4cn(C)c5c(=O)[nH]c(N)nc54)C(O[C@H]2CCS(C)(=O)=O)C3O)O[C@H]1n1cnc2c(N)ncnc21 (stereo partly shown) [YK-CAP-005] = 2.2

Please fill in: average radiation intensity, times that of YK-CAP-002 reported for COC1C(OP(=O)([O-])OC[C@H]2O[C@@H](n3cnc4c(=O)[nH]c(N)nc43)C(O)C2O)[C@@H](COP(=O)(O)OP(=O)(O)OP(=O)(O)OC[C@]23O[C@@H]([n+]4cn(C)c5c(=O)[nH]c(N)nc54)C(O[C@H]2CC(=O)N(C)C)C3O)O[C@H]1n1cnc2c(N)ncnc21 (stereo partly shown) [YK-CAP-003] = 2.2

Please fill in: average radiation intensity, times that of YK-CAP-002 reported for COC1C(OP(=O)([O-])OC[C@H]2O[C@@H](n3cnc4c(=O)[nH]c(N)nc43)C(O)C2O)[C@@H](COP(=O)(O)OP(=O)(O)OP(=O)(O)OC[C@]23O[C@@H]([n+]4cn(C)c5c(=O)[nH]c(N)nc54)C(O[C@H]2CCS(=O)(=O)N(C)C)C3O)O[C@H]1n1cnc2c(N)ncnc21 (stereo partly shown) [YK-CAP-006] = 2.3

All values here come from patent US12551500B2.
